experimental_system: pan-HDAC
assay_procedure: In vitro enzyme inhibition assay - HDAC (HDAC-Glo I/II), pan-HDAC
Type: biochemical
Where a name gives a salt, the structure may show the parent alone.
observable: IC50 (nM)

# molecule, observable, unit_of_measurement, experimental_value
records = [
    ("COc1ccc(-c2cnc(N3CCC(C)(NCc4cnc(/C=C/C(=O)NO)nc4)CC3)c(C#N)c2-c2ccc(C#N)c(F)c2)cc1O [Example 206, formate]", "IC50", "nM", 11.5),
    ("COc1cc(-c2ccc(CN3CC[C@H](NCc4ccc(/C=C/C(=O)NO)cc4)C3)cc2-c2ccc(C#N)c(F)c2)ccc1O [Example 75]", "IC50", "nM", 76.6),
    ("COc1ccc(-c2cnc(N3CCC(NCc4ccc(/C=C/C(=O)NO)cc4)CC3)c(C#N)c2-c2ccc(C#N)cc2F)cc1O [Example 134, formate]", "IC50", "nM", 3.55),
    ("N#Cc1ccc(-c2c(-c3cccc(O)c3)cnc(N3CCC(NCc4ccc(/C=C/C(=O)NO)cc4)CC3)c2C#N)cc1F [Example 139, formate]", "IC50", "nM", 6.82),
    ("N#Cc1ccc(-c2c(-c3ccc4c(c3)OCO4)cnc(N3CCC(NCc4ccc(/C=C/C(=O)NO)cc4)CC3)c2C#N)cc1F [Example 103, formate]", "IC50", "nM", 62.3),
    ("CC1(NCc2ccc(/C=C/C(=O)NO)cc2)CCN(c2ncc(-c3ccc(OCC4(O)CC4)c(O)c3)c(-c3ccc(C#N)c(F)c3)c2C#N)CC1 [Example 229]", "IC50", "nM", 30.8),
]
